Where do these numbers come from? They come from the Immune Epitope Database (IEDB).

targetOrTestSystem: HLA-B*58:01
measurementDescription: IEDB peptide-MHC binding, purified MHC/direct/fluorescence; filed as Kd, often an IC50 or EC50 that approximates it; bounds were set here for any values at or beyond the usual limits of such assays
details: source organism: Yersinia pestis
pKd: −log10 of the molar value.
attributeMeasured: pKd

Give the measured pKd of SRWAISHWL .
≤ 4.70

Give the measured pKd of LLAALFHDI .
5.71

Give the measured pKd of RVFNGDDVK .
≤ 4.70

====

targetOrTestSystem: HLA-A*31:01
measurementDescription: IEDB peptide-MHC binding, purified MHC/competitive/fluorescence; filed as Kd, often an IC50 or EC50 that approximates it; bounds were set here for any values at or beyond the usual limits of such assays
details: source organism: Shigella flexneri 5 str. 8401
attributeMeasured: Kd (nM)
# unit: nM | format: bare number

Give the measured Kd of TTIPTNLFR .
121

====

targetOrTestSystem: HLA-A*03:01
measurementDescription: IEDB peptide-MHC binding, purified MHC/direct/fluorescence; filed as Kd, often an IC50 or EC50 that approximates it; bounds were set here for any values at or beyond the usual limits of such assays
details: source organism: Sudan ebolavirus - Maleo (1979)
attributeMeasured: pKd
Bear in mind: pKd is minus log10 of a mol/L concentration; give just that figure.

Give the measured pKd of TSACGIFLK .
5.96

====

I'd be grateful if you could share measured pKd for these entries.
targetOrTestSystem: HLA-B*51:01
measurementDescription: IEDB peptide-MHC binding, purified MHC/competitive/radioactivity; filed as Kd, often an IC50 or EC50 that approximates it; bounds were set here for any values at or beyond the usual limits of such assays
details: source organism: Vaccinia virus WR
pKd: −log10 of the molar value.

Give the measured pKd of IPSTVKTNLY .
≤ 4.16

Give the measured pKd of STCYVFGLY .
≤ 4.13

Give the measured pKd of QPEKEIPEY .
≤ 4.42

Give the measured pKd of PPCQCTVQEF .
≤ 4.16

Give the measured pKd of LPEETNIGCA .
≤ 4.16

====

targetOrTestSystem: HLA-A*26:01
measurementDescription: IEDB peptide-MHC binding, purified MHC/competitive/radioactivity; filed as Kd, often an IC50 or EC50 that approximates it; bounds were set here for any values at or beyond the usual limits of such assays
details: source organism: SARS coronavirus Tor2
I'd be grateful if you could share measured Kd for these entries.

Request - read-out Kd | tested on HLA-A*26:01 | sequence TYVPSQERNF
≥ 69.7 µM

Request - read-out Kd | tested on HLA-A*26:01 | sequence LSDDAVVCY
≥ 80.3 µM

Request - read-out Kd | tested on HLA-A*26:01 | sequence AYLRKHFSM
≥ 77.9 µM

Request - read-out Kd | tested on HLA-A*26:01 | sequence GYKNVRITF
≥ 54.1 µM

Request - read-out Kd | tested on HLA-A*26:01 | sequence AEDMLNPNY
≥ 86.9 µM

Request - read-out Kd | tested on HLA-A*26:01 | sequence LQSLENVAY
≥ 81.5 µM

====

I'd be grateful if you could share measured Kd for these entries.
targetOrTestSystem: HLA-A*02:06
measurementDescription: IEDB peptide-MHC binding, purified MHC/competitive/radioactivity; filed as Kd, often an IC50 or EC50 that approximates it; bounds were set here for any values at or beyond the usual limits of such assays
details: source organism: Vaccinia virus WR
# unit: nM | format: bare number

Give the measured Kd of EVMPEKRNVV .
12100

Give the measured Kd of SVDEEGCGPL .
12700

Give the measured Kd of IASILSLETV .
47.3

Give the measured Kd of TICLKNEGV .
311

Give the measured Kd of VMHINSPFKV .
393

Give the measured Kd of DVDIPTFNSL .
9710

Give the measured Kd of GVLIAGIIL .
951

Give the measured Kd of TTPLISFFGL .
3360

Give the measured Kd of FANVISKIYT .
1660

Give the measured Kd of RVNDLNRMPT .
7720

Give the measured Kd of YIESKAKQL .
2990

Give the measured Kd of STCYVFGLY .
6140

Give the measured Kd of PASISSVLT .
1490

Give the measured Kd of PTILATLNTL .
771

Give the measured Kd of QQLCTMERT .
929

Give the measured Kd of IMSIGFEARI .
1600

Give the measured Kd of QLMYDIINSV .
5.61

Give the measured Kd of FMEEEIKAEM .
865

Give the measured Kd of GIYNCCESNI .
290

Give the measured Kd of RVNHAKYMVT .
9330

Give the measured Kd of MMVILPDKI .
909

Give the measured Kd of YIMRVMANNV .
14.2

====

I'd be grateful if you could share measured Kd for these entries.
targetOrTestSystem: HLA-A*02:03
measurementDescription: IEDB peptide-MHC binding, purified MHC/competitive/radioactivity; filed as Kd, often an IC50 or EC50 that approximates it; bounds were set here for any values at or beyond the usual limits of such assays
details: source organism: Vaccinia virus WR
# unit: µM | format: bare number

Give the measured Kd of RVNDLNRMPT .
1.44

Give the measured Kd of GVLIAGIIL .
1.04

Give the measured Kd of DVDIPTFNSL .
1.03

Give the measured Kd of VIDRLPSET .
0.742

====

targetOrTestSystem: HLA-A*30:01
measurementDescription: IEDB peptide-MHC binding, purified MHC/competitive/radioactivity; filed as Kd, often an IC50 or EC50 that approximates it; bounds were set here for any values at or beyond the usual limits of such assays
details: source organism: Vaccinia virus WR
I'd be grateful if you could share measured pKd for these entries.
Bear in mind: pKd is minus log10 of a mol/L concentration; give just that figure.

Request - read-out pKd | tested on HLA-A*30:01 | sequence IIKSSYVFK
7.96

Request - read-out pKd | tested on HLA-A*30:01 | sequence MTRDPLYIY
7.77

Request - read-out pKd | tested on HLA-A*30:01 | sequence RSKDTHVFA
10.73

Request - read-out pKd | tested on HLA-A*30:01 | sequence RTKDTRIKA
9.71

Request - read-out pKd | tested on HLA-A*30:01 | sequence KYRYGTFLY
8.97

====

targetOrTestSystem: HLA-A*11:01
measurementDescription: IEDB peptide-MHC binding, purified MHC/competitive/radioactivity; filed as Kd, often an IC50 or EC50 that approximates it; bounds were set here for any values at or beyond the usual limits of such assays
details: source organism: Vaccinia virus WR
attributeMeasured: Kd (nM)
# unit: nM | format: bare number

Give the measured Kd of ITDNGPMPY .
7.31

Give the measured Kd of VFKDSFLRK .
216

Give the measured Kd of DIVNNFITK .
1010

Give the measured Kd of EARIVDKFGK .
2570

Give the measured Kd of IVTDLENRLK .
309

====

I'd be grateful if you could share measured pKd for these entries.
targetOrTestSystem: HLA-A*03:01
measurementDescription: IEDB peptide-MHC binding, purified MHC/competitive/radioactivity; filed as Kd, often an IC50 or EC50 that approximates it; bounds were set here for any values at or beyond the usual limits of such assays
details: source organism: Vaccinia virus WR
Bear in mind: pKd is minus log10 of a mol/L concentration; give just that figure.

Give the measured pKd of CLLAISAVY .
6.01

Give the measured pKd of CLEWLRAKR .
4.88

Give the measured pKd of EARIVDKFGK .
5.11

Give the measured pKd of VADLSARNK .
6.67

Give the measured pKd of QTQTYNIGK .
6.84

Give the measured pKd of IIVLFQRFLR .
6.03

Give the measured pKd of FTSTNDKIK .
5.92

Give the measured pKd of CTFMIITSTK .
6.34

Give the measured pKd of ETLNEYKQLY .
4.82

Give the measured pKd of SLFKNVRLLK .
8.29

Give the measured pKd of ILAEYIRHR .
7.11

====

I'd be grateful if you could share measured Kd for these entries.
targetOrTestSystem: HLA-A*03:01
measurementDescription: IEDB peptide-MHC binding, purified MHC/competitive/radioactivity; filed as Kd, often an IC50 or EC50 that approximates it; bounds were set here for any values at or beyond the usual limits of such assays
details: source organism: Vaccinia virus WR

Give the measured Kd of FISDNKKEY .
≥ 78 µM

Give the measured Kd of ITPTIEDDK .
≥ 78 µM

Give the measured Kd of CYLDTNIKM .
≥ 38.6 µM

Give the measured Kd of DIVNNFITK .
≥ 40.8 µM

Give the measured Kd of AIEKDRLDK .
≥ 78 µM

Give the measured Kd of STTDAEACY .
≥ 47.8 µM
